Data origin: patent US9732075B2

Target: human orexin-2 receptor (Homo sapiens (Human), UniProt O43614)
Sequence (O43614 whole entry): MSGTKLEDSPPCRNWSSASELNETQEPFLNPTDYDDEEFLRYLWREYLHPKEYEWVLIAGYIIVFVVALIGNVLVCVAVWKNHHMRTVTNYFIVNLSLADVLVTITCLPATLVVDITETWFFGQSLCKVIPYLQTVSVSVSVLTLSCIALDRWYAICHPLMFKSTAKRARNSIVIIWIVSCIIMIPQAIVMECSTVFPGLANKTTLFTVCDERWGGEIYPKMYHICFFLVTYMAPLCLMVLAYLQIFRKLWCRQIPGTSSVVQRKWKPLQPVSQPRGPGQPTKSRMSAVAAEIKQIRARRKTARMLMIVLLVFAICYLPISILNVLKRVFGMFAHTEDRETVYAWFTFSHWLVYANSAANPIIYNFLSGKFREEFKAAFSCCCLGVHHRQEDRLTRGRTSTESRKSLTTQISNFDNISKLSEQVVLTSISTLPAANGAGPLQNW
Test: In vitro assay: intracellular calcium measurements (FLIPR), antagonistic activity
Settings: CHO cells expressing human orexin-2 receptor, orexin-A agonist, geometric mean, read-out: IC50 Ox2
outcome.measure: IC50 (nM)
Kindly answer with a numeric value in nM, unit omitted.

Which IC50 value is on record for `Cc1ccc(-n2cccn2)c(C(=O)N2CC[C@H](C)[C@H]2c2nc3cc(C)c(C)cc3[nH]2)c1` ?
2320

Which IC50 value is on record for `COc1ccc(-n2nccn2)c(C(=O)N2CCC[C@@]2(C)c2nc3cc(C(F)(F)F)ccc3[nH]2)c1F` ?
570

Which IC50 value is on record for CO[C@H]1CN(C(=O)c2cc(C)ccc2-n2nccn2)C(C)(c2nc3c(C)cccc3[nH]2)C1 (stereo partly shown) ?
66

Which IC50 value is on record for `Cc1cc(C(=O)N2CCC[C@@]2(C)c2nc3c(C)c(Cl)ccc3[nH]2)c(-n2nccn2)cc1C` ?
2

----------
Entries annotated with measured pIC50
Target: human orexin-2 receptor (Homo sapiens (Human))
Experiment: In vitro assay: intracellular calcium measurements (FLIPR), antagonistic activity
Conditions: CHO cells expressing human orexin-2 receptor, orexin-A agonist, geometric mean, read-out: IC50 Ox2
Bear in mind: pIC50 is minus log10 of a mol/L concentration; give just that figure.

Some molecules with known pIC50 results, for comparison:
C=C1C[C@@H](c2nc3cc(OC)ccc3[nH]2)N(C(=O)c2ccccc2-c2ccc(C)cc2)C1 = 7.43
C=C1C[C@@H](c2nc3cc(OC)ccc3[nH]2)N(C(=O)c2nc(C3CC3)sc2-c2cccc(Br)c2)C1 = 7.82
COc1cccc(-c2ccc(C)cc2C(=O)N2CCC[C@@]2(C)c2nc3c(C)c(C)ccc3[nH]2)c1 = 7.85
C=C1C[C@@H](c2nc3cc(Cl)c(C(F)(F)F)cc3[nH]2)N(C(=O)c2cc(C)ccc2-n2cccn2)C1 = 7.82
CSc1cccc2nc([C@@H]3CCCN3C(=O)c3nc(C)sc3-c3cccc(Cl)c3)[nH]c12 = 7.62

# evaluate next
Which pIC50 value is on record for `Cc1ccc(-c2ccccc2F)c(C(=O)N2CCC[C@@]2(C)c2nc3cc(C)c(C)cc3[nH]2)c1` ?
7.54

----------
Target: UniProt:O43613
Assay: In vitro assay: intracellular calcium measurements (FLIPR), antagonistic activity
Conditions: CHO cells expressing human orexin-1 receptor, orexin-A agonist, geometric mean, read-out: IC50 Ox1
outcome.measure: log10 of IC50 (log10 of the value in µM)
Give log10 of IC50, with IC50 taken in µM.

Some compounds with known log10 of IC50 results, for comparison:
Cc1nc(C(=O)N2CCCC2c2nc3c(C(C)C)cccc3[nH]2)c(-c2cccc(Cl)c2)s1 (centres unmarked) = -1.07
Cc1nc(C(=O)N2CCCC2c2nc3cc(C(F)(F)F)c(Cl)cc3[nH]2)c(-c2ccccc2)s1 (centres unmarked) = -2.40
COc1cc2nc([C@]3(C)CCCN3C(=O)c3cc(F)ccc3-n3nccn3)[nH]c2cc1OC = -0.70
Cc1ccc(C(=O)N2CC[C@H](C)[C@H]2c2nc3c(C)c(Cl)ccc3[nH]2)c(-n2nccn2)c1 = -2.52

Which log10 of IC50 value is on record for `C=C1C[C@@H](c2nc3ccc(Cl)c(C)c3[nH]2)N(C(=O)c2c(-n3nccn3)ccc(OC)c2F)C1` ?
-2.52

Which log10 of IC50 value is on record for `CSc1ccc2nc([C@@H]3CCCN3C(=O)c3nccnc3-c3cc(C)cc(F)c3)[nH]c2c1` ?
-0.30

----------
Target: human orexin-1 receptor (Homo sapiens (Human), UniProt O43613)
Sequence (O43613 whole entry): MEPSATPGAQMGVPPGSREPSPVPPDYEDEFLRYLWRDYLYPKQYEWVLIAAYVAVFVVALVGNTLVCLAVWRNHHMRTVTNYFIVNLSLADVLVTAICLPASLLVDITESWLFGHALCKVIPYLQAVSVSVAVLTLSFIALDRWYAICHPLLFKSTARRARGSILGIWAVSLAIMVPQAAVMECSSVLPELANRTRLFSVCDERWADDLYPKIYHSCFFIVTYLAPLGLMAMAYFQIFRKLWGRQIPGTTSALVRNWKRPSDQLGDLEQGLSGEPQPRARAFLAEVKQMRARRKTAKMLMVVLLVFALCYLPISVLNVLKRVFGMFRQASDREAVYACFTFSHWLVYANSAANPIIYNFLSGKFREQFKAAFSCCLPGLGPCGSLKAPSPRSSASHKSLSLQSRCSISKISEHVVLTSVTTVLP
Test: In vitro assay: intracellular calcium measurements (FLIPR), antagonistic activity
Assay type: cell-based
Conditions: CHO cells expressing human orexin-1 receptor, orexin-A agonist, geometric mean, read-out: IC50 Ox1
pIC50: −log10 of the molar value.
Binned pIC50; ranges: bottom end = under 7, midrange = from 7 up to 8, top end = 8 and over

Solved cases (4 shown):
C=C1C[C@@H](c2nc3ccc(Cl)c(C)c3[nH]2)N(C(=O)c2nc(C)sc2-c2ccc(F)c(Br)c2)C1 = top end
Cc1nc(C(=O)N2CCC[C@@]2(C)c2nc3cccc(C)c3[nH]2)c(-c2ccccc2)s1 = midrange
C=C1C[C@@H](c2nc3cc(OC)ccc3[nH]2)N(C(=O)c2nc(C)sc2-c2ccc(F)c(Br)c2)C1 = midrange
COc1ccc2nc([C@@H]3C[C@@H](OC)CN3C(=O)c3ccc(C)cc3-n3nccn3)[nH]c2c1 = bottom end

Consider `COc1cc(C(=O)N2CCC[C@@]2(C)c2nc3cc(C)c(C)cc3[nH]2)c(-n2nccn2)cc1OC` . To which pIC50 class does it belong?
midrange

Consider `Cc1nc(C(=O)N2C[C@H](F)C[C@H]2c2nc3c(C)c(Cl)ccc3[nH]2)c(-c2cccc(Cl)c2)s1` . To which pIC50 class does it belong?
top end

----------
Biological target: human orexin-2 receptor (Homo sapiens (Human), UniProt O43614)
Assay: In vitro assay: intracellular calcium measurements (FLIPR), antagonistic activity
Conditions: CHO cells expressing human orexin-2 receptor, orexin-A agonist, geometric mean, read-out: IC50 Ox2
Entries annotated with measured IC50
Kindly answer with a numeric value in nM, unit omitted.

Some molecules with known IC50 results, for comparison:
Cc1ccc(-c2ccc(F)cc2)c(C(=O)N2CCC[C@@]2(C)c2nc3cc(C(F)(F)F)c(Cl)cc3[nH]2)c1 [Ex. 5.152] = 51
C=C1C[C@@H](c2nc3cccc(C)c3[nH]2)N(C(=O)c2nc(C)ccc2-n2nccn2)C1 [Ex. 6.115] = 9
Cc1cc2[nH]c([C@@H]3[C@@H](C)CCN3C(=O)c3c(-c4ccccc4)ccc(C)c3F)nc2cc1Cl [Ex. 4.115] = 754
CSc1ccc2nc([C@@H]3CCCN3C(=O)c3cc(F)ccc3-n3nccn3)[nH]c2c1 [Ex. 1.147] = 24
C[C@@]1(c2nc3c(F)c(F)ccc3[nH]2)CCCN1C(=O)c1cc(F)ccc1-n1nccn1 [Ex. 5.204] = 900

Which IC50 value is on record for Cc1ccc(C(=O)N2CC[C@H](C)[C@H]2c2nc3c(C)cc(Cl)cc3[nH]2)c(-n2nccn2)c1 [Ex. 4.93] ?
74

Which IC50 value is on record for Cc1ccc(-n2nccn2)c(C(=O)N2CC[C@H](C)[C@H]2c2nc3c(C)c(C)ccc3[nH]2)c1 [Ex. 4.37] ?
988

Which IC50 value is on record for COc1cccc(-c2nc(C(=O)N3CCC[C@@]3(C)c3nc4ccc(Cl)c(C)c4[nH]3)c(-c3ccc(F)cc3)s2)c1 [Ex. 5.231] ?
135

----------
Target: human orexin-1 receptor (Homo sapiens (Human))
Assay: In vitro assay: intracellular calcium measurements (FLIPR), antagonistic activity
Settings: CHO cells expressing human orexin-1 receptor, orexin-A agonist, geometric mean, read-out: IC50 Ox1
outcome.measure: log10 of IC50 (log10 of the value in nM)
Give log10 of IC50, with IC50 taken in nM.

Some compounds with known log10 of IC50 results, for comparison:
COc1ccc(-n2nccn2)c(C(=O)N2CCC[C@@]2(C)c2nc3c(C)cccc3[nH]2)c1 = 1.69
C=C1C[C@@H](c2nc3cccc(C)c3[nH]2)N(C(=O)c2nc(C)sc2-c2ccc(OC)nc2)C1 = 2.26
Cc1nc(C(=O)N2CCCC2c2nc3cc(Br)cc(C)c3[nH]2)c(-c2cccc(Cl)c2)s1 (stereo not drawn) = 1.45
Cc1nc(C(=O)N2CCCC2c2nc3cc(C)c(C)cc3[nH]2)c(-c2cccc(Cl)c2)s1 (stereo not drawn) = 1.26
C=C1C[C@@H](c2nc3cccc(C)c3[nH]2)N(C(=O)c2nc(C)sc2-c2ccc(F)cc2)C1 = 2.00
Cc1cccc(-c2ccc(C)cc2C(=O)N2CCC[C@@]2(C)c2nc3c(C)c(C)ccc3[nH]2)c1 = 0.70
Cc1ccc(-c2cccc(F)c2)c(C(=O)N2CCC[C@@]2(C)c2nc3c(C)c(C)ccc3[nH]2)c1 = 0.48
Cc1ccc(-c2cccnc2)c(C(=O)N2CC[C@H](C)[C@H]2c2nc3c(C)c(Cl)ccc3[nH]2)c1 = 1.30

# evaluate next
Tell me reported log10 of IC50 for `COc1cccc(-c2ccc(C)cc2C(=O)N2CCC[C@@]2(C)c2nc3cc(C)c(C)cc3[nH]2)c1` , tested with human orexin-1 receptor (Homo sapiens (Human)).
1.18

----------
Biological target: human orexin-1 receptor (Homo sapiens (Human), UniProt O43613)
Assay: In vitro assay: intracellular calcium measurements (FLIPR), antagonistic activity
Details: CHO cells expressing human orexin-1 receptor, orexin-A agonist, geometric mean, read-out: IC50 Ox1
outcome.measure: IC50 (nM)
Kindly answer with a numeric value in nM, unit omitted.

Some compounds with known IC50 results, for comparison:
Cc1nc(C(=O)N2CCCC2c2nc3cc(C(C)(C)C)ccc3[nH]2)c(-c2cccc(Cl)c2)s1 (stereo not drawn) = 58
C=C1C[C@@H](c2nc3cc(OC)ccc3[nH]2)N(C(=O)c2nc(N(C)C)sc2-c2ccc(C)c(C)c2)C1 = 5

# evaluate next
Which IC50 value is on record for `Cc1ccc(-n2nccn2)c(C(=O)N2C[C@@H](F)C[C@H]2c2nc3ccc(Cl)c(C)c3[nH]2)c1` ?
56
